// provenance: patent US11414402B2

The reader will find reported IC50 values listed item by item below.
# tested.on: USP30 (Homo sapiens (Human), UniProt Q70CQ3)
# Sequence (Q70CQ3 57-517): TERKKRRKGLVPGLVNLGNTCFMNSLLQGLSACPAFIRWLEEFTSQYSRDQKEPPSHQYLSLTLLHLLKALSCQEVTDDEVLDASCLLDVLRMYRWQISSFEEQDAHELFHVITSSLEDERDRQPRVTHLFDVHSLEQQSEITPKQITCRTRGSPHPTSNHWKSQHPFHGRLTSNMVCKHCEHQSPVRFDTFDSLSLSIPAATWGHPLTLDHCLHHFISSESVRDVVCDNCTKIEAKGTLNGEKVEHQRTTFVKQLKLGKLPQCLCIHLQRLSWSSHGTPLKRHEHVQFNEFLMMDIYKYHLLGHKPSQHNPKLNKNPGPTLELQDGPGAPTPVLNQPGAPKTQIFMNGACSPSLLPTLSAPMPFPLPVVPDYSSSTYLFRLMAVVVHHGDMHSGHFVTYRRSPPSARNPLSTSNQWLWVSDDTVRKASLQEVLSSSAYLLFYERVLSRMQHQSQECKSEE
# assay.explanation: USP30 biochemical IC50 assay (fluorescence polarisation)
# reported.conditions: USP30 CD (57-517); 30 min preincubation at room temp; TAMRA-peptide-ubiquitin substrate 50 nM; read after 2-hour incubation; read-out: IC50 range

Below: 5 molecules and their reported IC50.
> print(dat)
                                   molecule  value.type         value
1  N#CN1CCC(S(=O)(=O)N2CCN(c3ccccn3)CC2)C1 (stereo not shown) [Example 28]        IC50   0.1 to 1 µM
2  N#CN1CCC(NS(=O)(=O)c2ccc(-c3cncnc3)cc2)C1 (stereo not shown) [Example 9]        IC50   0.1 to 1 µM
3  N#CN1CCC(NS(=O)(=O)c2ccc(Oc3ccccc3)nc2)C1 (stereo not shown) [Example 16]        IC50   0.1 to 1 µM
4  Cc1ccc(F)cc1S(=O)(=O)NC1CCN(C#N)C1 (stereo not shown) [Example 17]        IC50    1 to 10 µM
5  Cc1ccc(S(=O)(=O)N2CCO[C@@H]3CN(C#N)C[C@H]32)cc1 (racemic) [Example 22]        IC50  10 to 100 µM

IC50 for CN(C1CCN(C#N)C1)S(=O)(=O)c1ccc(Oc2ccc(C(F)(F)F)cn2)cc1 (stereo not shown) [Example 25] is 0.1 to 1 µM

The reported IC50 of the molecule CC(C)c1ccc(S(=O)(=O)NC2CCN(C#N)C2)cc1 (stereo not shown) [Example 18] was 1 to 10 µM

According to the records, this molecule CN1CCN(c2ccc(S(=O)(=O)NC3CCN(C#N)C3)cc2)CC1 (stereo not shown) [Example 10] displays IC50 of 1 to 10 µM

Kindly note the recorded IC50 for N#CN1CCC(S(=O)(=O)N2CC(c3ccc(Cl)cc3)C2)C1 (stereo not shown) [Example 34] , which is 0.1 to 1 µM

According to the records, this molecule N#CN1CCC(NS(=O)(=O)c2ccccc2-c2ccccc2)C1 (stereo not shown) [Example 1] displays IC50 of 0.1 to 1 µM
